Provenance of the data: patent US20030176390A1

Catalogue of melting point readings, one per entry.
experimental readout: melting point

{"columns": ["compound", "experimental readout", "measured"],
 "data": [
  ["OC[C@H]1C[C@@H](n2cnc3c(N[C@H]4CCN(c5cccc(Cl)c5)C4)ncnc32)[C@H](O)[C@@H]1O [Example 57]", "melting point", "131 to 133 °C"],
  ["COC[C@H]1C[C@@H](n2cnc3c(N[C@H]4CCN(c5ccc(C(F)(F)F)cc5)C4)ncnc32)[C@H](O)[C@@H]1O [Example 54]", "melting point", "128 °C"],
  ["COC[C@H]1C[C@@H](n2cnc3c(N[C@H]4CCN(c5ccc(C(F)(F)F)cn5)C4)ncnc32)[C@H](O)[C@@H]1O [Example 3]", "melting point", "166 to 168 °C"],
  ["OC[C@H]1O[C@@H](n2cnc3c(N[C@@H]4CCN(c5ccc(C(F)(F)F)cn5)C4)ncnc32)[C@H](O)[C@@H]1O (hydrate or solvate) [Example 4]", "melting point", "166 to 170 °C"],
  ["COC[C@H]1C[C@@H](n2cnc3c(N[C@H]4CCN(c5ccc(Cl)cc5)C4)ncnc32)[C@H](O)[C@@H]1O [Example 55]", "melting point", "122 to 125 °C"],
  ["CSc1ccc(N2CC[C@H](Nc3ncnc4c3ncn4[C@@H]3O[C@H](CO)[C@@H](O)[C@H]3O)C2)nc1 [Example 19]", "melting point", "231 to 233 °C"],
  ["OC[C@H]1C[C@@H](n2cnc3c(N[C@@H]4CCNC4)ncnc32)[C@H](O)[C@@H]1O [Example 28]", "melting point", "166 °C (dec.)"],
  ["Cc1ccc(N2CC[C@H](Nc3ncnc4c3ncn4[C@@H]3O[C@H](CO)[C@@H](O)[C@H]3O)C2)nc1 [Example 17]", "melting point", "164 to 166 °C"],
  ["OC[C@H]1O[C@@H](n2cnc3c(N[C@H]4CCN(c5ccc(Cl)cc5)C4)ncnc32)[C@H](O)[C@@H]1O [Example 16]", "melting point", "121 to 124 °C"],
  ["CC(C)OC[C@H]1C[C@@H](n2cnc3c(N[C@H]4CCN(c5ccc(C(F)(F)F)cn5)C4)ncnc32)[C@H](O)[C@@H]1O [Example 49]", "melting point", "157 to 158 °C"],
  ["OC[C@H]1C[C@@H](n2cnc3c(N[C@H]4CCN(c5ccc(Br)cn5)C4)ncnc32)[C@H](O)[C@@H]1O [Example 32]", "melting point", "169 to 171 °C"],
  ["COC[C@H]1C[C@@H](n2cnc3c(N[C@H]4CCN(c5cc(OC)ncn5)C4)ncnc32)[C@H](O)[C@@H]1O [Example 48]", "melting point", "118 to 120 °C"],
  ["O=[N+]([O-])c1ccc(N2CCC(Nc3ncnc4c3ncn4[C@@H]3C[C@H](CO)[C@@H](O)[C@H]3O)CC2)cc1 [Example 25]", "melting point", "126 to 128 °C"],
  ["COC[C@H]1C[C@@H](n2cnc3c(N[C@H]4CCN(c5ccccc5)C4)ncnc32)[C@H](O)[C@@H]1O [Example 58]", "melting point", "106 °C"],
  ["COC[C@H]1C[C@@H](n2cnc3c(N[C@H]4CCN(c5ccc(Cl)nn5)C4)ncnc32)[C@H](O)[C@@H]1O [Example 51]", "melting point", "122 to 124 °C"],
  ["OC[C@H]1C[C@@H](n2cnc3c(N[C@H]4CCN(c5cc(C(F)(F)F)ccn5)C4)ncnc32)[C@H](O)[C@@H]1O [Example 34]", "melting point", "135 to 137 °C"],
  ["OC[C@H]1C[C@@H](n2cnc3c(N[C@H]4CCN(c5ccc(C(F)(F)F)cc5)C4)ncnc32)[C@H](O)[C@@H]1O [Example 5]", "melting point", "111 to 114 °C"],
  ["COC[C@H]1C[C@@H](n2cnc3c(N[C@H]4CCN(c5cccc(Cl)c5)C4)ncnc32)[C@H](O)[C@@H]1O [Example 56]", "melting point", "127 to 130 °C"],
  ["COC[C@H]1C[C@@H](n2cnc3c(N[C@H]4CCN(Cc5ccccc5)C4)ncnc32)[C@H](O)[C@@H]1O [Example 60]", "melting point", "95 to 96 °C"],
  ["COC[C@H]1C[C@@H](n2cnc3c(N[C@H]4CCN(c5ncc(C(F)(F)F)cc5Cl)C4)ncnc32)[C@H](O)[C@@H]1O [Example 44]", "melting point", "140 to 143 °C"],
  ["OC[C@H]1C[C@@H](n2cnc3c(N[C@H]4CCN(c5ccccc5)C4)ncnc32)[C@H](O)[C@@H]1O [Example 39]", "melting point", "97 to 99 °C"],
  ["O=[N+]([O-])c1ccc(N2CC[C@H](Nc3ncnc4c3ncn4[C@@H]3O[C@H](CO)[C@@H](O)[C@H]3O)C2)cc1 [Example 12]", "melting point", "230 to 232 °C"],
  ["OC[C@H]1O[C@@H](n2cnc3c(NC4CCN(c5ccc(Cl)nn5)C4)ncnc32)[C@H](O)[C@@H]1O (stereo partly shown) [Example 22]", "melting point", "130 °C (dec.)"],
  ["OC[C@H]1C[C@@H](n2cnc3c(N[C@H]4CCN(c5cnc6ccccc6c5)C4)ncnc32)[C@H](O)[C@@H]1O [Example 36]", "melting point", "135 to 138 °C"],
  ["OC[C@H]1C[C@@H](n2cnc3c(N[C@H]4CCN(Cc5ccccc5)C4)ncnc32)[C@H](O)[C@@H]1O [Example 59]", "melting point", "100 to 102 °C"],
  ["COC[C@H]1O[C@@H](n2cnc3c(N[C@H]4CCN(c5ccc(C(F)(F)F)cn5)C4)ncnc32)[C@H](O)[C@@H]1O [Example 23]", "melting point", "198 to 200 °C"],
  ["N#Cc1ccc(N2CC[C@H](Nc3ncnc4c3ncn4[C@@H]3C[C@H](CO)[C@@H](O)[C@H]3O)C2)cc1 [Example 40]", "melting point", "140 °C"],
  ["OC[C@H]1C[C@@H](n2cnc3c(N[C@H]4CCN(c5cc(Cl)ncn5)C4)ncnc32)[C@H](O)[C@@H]1O [Example 45]", "melting point", "180 to 182 °C"]
]}
